Reference source for all entries: PubChem BioAssay (Tox21)

# protocol_description: Caspase-3/7 induction in CHO-K1 cells by small molecules, qHTS cell viability counter screen (AID 1346979); further: on the % scale 0 is the no-effect control and ±100 the full control effect; nearly all actives have a fitted effect of over 35% in size
# experimental_setup: CellTiter-Fluor fluorescence, 17 h; series mostly up to 92.4 µM
Inconclusive results are not listed. Active and inactive are the calls of the source. The call rests on the fitted dose curve; in most records, active means well fitted cell-killing curve with a large enough effect in the repeat runs; inconclusive means weak or mixed curves, or effect the other way; inactive means no such curve, though single readings can be large or run the other way. Where a SMILES comes first, the peptide text is derived from it.
measured_parameter: activity change, negative = cytotoxicity

A selection of reference data follows.
INSERT INTO results (compound, result) VALUES
  ('[O]=[Mo](=[O])=[O]', '3.86% [at 19 µM] (inactive)'),
  ('Cc1ncc([N+](=O)[O-])n1CC(C)O (configuration not stated)', 'inactive'),
  ('CN(C)CCOC(=O)C(c1ccccc1)C1(O)CCCC1 (configuration not stated)', 'inactive'),
  ('CC(=O)N[C@@H](CO)C(=O)N[C@@H](CC(=O)O)C(=O)N[C@@H](CCCCN)C(=O)N1CCC[C@H]1C(=O)O (Ac-SDKP-OH)', 'inactive'),
  ('Cc1c(N)cccc1Cl', 'inactive');

q: Name the reported activity change, negative = cytotoxicity value associated with the compound O=C1c2ccccc2C(=O)c2cc(Cl)ccc21
a: 9.78% [at 8.39 µM] (inactive)

q: Same thing, different compound: CC(=O)OC(C)=O
a: inactive

q: Follow-up item: CO/N=C(/C(=O)N[C@@H]1C(=O)N2C(C(=O)[O-])=C(C[n+]3ccn4ncccc43)CS[C@H]12)c1nsc(N)n1
a: inactive

====

# target: Cytochrome P450 3A4 (Homo sapiens)
# protocol_description: Cytochrome P450 Family 3 Subfamily A Member 4 (CYP3A4) small molecule antagonists: luciferase reporter qHTS assay (AID 1671201); further: nearly all actives have a fitted effect of over 50% in size
# experimental_setup: P450-Glo CYP3A4 enzyme, luciferin luminescence, 1 h; series mostly up to 115 µM
Records with an inconclusive call do not appear. Active and inactive are the calls of the source. Calls come from the whole dose curve; as a rule, active = well fitted inhibition curve with a large enough effect in the repeat runs; inconclusive = weak or mixed curves; inactive = no such curve, though single readings can be large or run the other way.
Tick one outcome: active, inactive

q: What did the test return for CC(C)c1ccc(C=O)cc1 ?
a: inactive

q: Please answer likewise for CC(=O)Nc1ccc(OC(=O)c2ccccc2OC(C)=O)cc1
a: inactive

q: Follow-up entry: CC(=O)CCC1=C(C)CCCC1(C)C
a: active

q: Also, COC(=O)c1ccccc1C(=O)O please.
a: inactive

q: Let us now turn to CC(S)C(C)S (centres undefined)
a: inactive

q: Now the compound CC(C)=CCC/C(C)=C/COC=O
a: inactive

q: Ok, now Cn1nnc2c(C(N)=O)ncn2c1=O
a: inactive

q: Note, next up: CNCCS(=O)(=O)O
a: inactive

q: Item: O=C(CCCCC(=O)Nc1c(I)cc(I)c(C(=O)O)c1I)Nc1c(I)cc(I)c(C(=O)O)c1I
a: inactive

q: Follow-up item: Cn1c(=O)c2c(ncn2CCO)n(C)c1=O
a: inactive

====

# activity change, negative = inhibition per record follows
# target: Cytochrome P450 2C19 (Homo sapiens) (UniProt P33261)
# Sequence (P33261 whole entry, looked up): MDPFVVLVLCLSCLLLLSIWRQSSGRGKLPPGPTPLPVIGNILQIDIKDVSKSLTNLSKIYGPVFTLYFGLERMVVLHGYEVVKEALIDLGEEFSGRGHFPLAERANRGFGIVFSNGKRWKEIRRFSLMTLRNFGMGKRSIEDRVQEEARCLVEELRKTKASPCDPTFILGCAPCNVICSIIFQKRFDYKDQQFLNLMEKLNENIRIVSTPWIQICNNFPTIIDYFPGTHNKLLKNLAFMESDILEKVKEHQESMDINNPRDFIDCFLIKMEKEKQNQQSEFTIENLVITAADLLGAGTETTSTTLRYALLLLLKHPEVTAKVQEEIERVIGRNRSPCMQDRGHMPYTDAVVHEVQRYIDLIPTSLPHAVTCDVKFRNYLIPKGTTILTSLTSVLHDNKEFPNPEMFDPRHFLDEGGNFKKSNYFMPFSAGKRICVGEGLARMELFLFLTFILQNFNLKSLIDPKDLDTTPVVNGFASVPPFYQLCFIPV
# protocol_description: Cytochrome P450 Family 2 Subfamily C Member 19 (CYP2C19) small molecule antagonists: luciferase reporter qHTS assay (AID 1671197); further: on the % scale 0 is the no-effect control and ±100 the full control effect; nearly all actives have a fitted effect of over 65% in size
# experimental_setup: P450-Glo CYP2C19 enzyme, luciferin luminescence, 1 h; series mostly up to 115 µM
Inconclusive results are not listed. Calls of active or inactive are those of the source. The call rests on the fitted dose curve; in most records, active means well fitted inhibition curve with a large enough effect in the repeat runs; inconclusive means weak or mixed curves; inactive means no such curve, though single readings can be large or run the other way.

q: activity change, negative = inhibition for N[C@@H](CSCCCO)C(=O)O ?
a: 3.16% [at 23.6 µM] (inactive)

q: Same read-out for O=S(=O)(O)c1ccc2c(N=Nc3ccc(S(=O)(=O)O)c4ccccc34)c(O)c(S(=O)(=O)O)cc2c1 ?
a: -14.2% [at 10.5 µM] (inactive)

q: Param item: [O]=[Mo](=[O])=[O]
a: -2.98% [at 23.6 µM] (inactive)

q: Param item: O=C1c2ccccc2C(=O)c2cc(Cl)ccc21
a: -15.8% [at 10.5 µM] (inactive)

====

# protocol_description: qHTS assay to identify small molecule agonists of the progesterone receptor (PR) signaling pathway - cell viability counter screen (AID 1346799); further: on the % scale 0 is the no-effect control and ±100 the full control effect; nearly all actives have a fitted effect of over 45% in size
# experimental_setup: PR-UAS-bla HEK293T viability, CellTiter-Glo luminescence, 16 h; series mostly up to 92.4 µM
Inconclusive results are not listed. Activity calls are given as the source filed them. Calls follow the shape of the full dose curve.
measured_parameter: activity change, negative = cytotoxicity

Observe how each entry below is paired with its result.
INSERT INTO assay_data (molecule, measured_parameter, result) VALUES
  ('OCCN1CCOCC1', 'activity change, negative = cytotoxicity', 'inactive'),
  ('CO[C@@]1(NC(=O)Cc2cccs2)C(=O)N2C(C(=O)O)=C(COC(N)=O)CS[C@@H]21', 'activity change, negative = cytotoxicity', 'inactive'),
  ('CO[Si](CCCn1c(=O)n(CCC[Si](OC)(OC)OC)c(=O)n(CCC[Si](OC)(OC)OC)c1=O)(OC)OC', 'activity change, negative = cytotoxicity', 'inactive'),
  ('CC(O)COC(C)(C)C (centres undefined)', 'activity change, negative = cytotoxicity', 'inactive'),
  ('CCn1cc(C(=O)O)c(=O)c2cnc(N3CCCC3)nc21', 'activity change, negative = cytotoxicity', '1.71% [at 8.39 µM] (inactive)');

q: // lookup activity change, negative = cytotoxicity for N[C@@H](Cc1ccc(O)cc1)C(=O)O
a: -21.8% [at 8.39 µM] (inactive)

q: Let us now turn to C=CC(=O)CCCCC
a: inactive

q: Same read-out for C=CCCCCCCCC ?
a: inactive

q: What do you have for C=C(C)[C@@H]1CC=C(C)C(=O)C1 ?
a: inactive

====

# protocol_description: Caspase-3/7 induction in HepG2 cells by small molecules, qHTS cell viability counter screen (AID 1346981); further: on the % scale 0 is the no-effect control and ±100 the full control effect; nearly all actives have a fitted effect of over 30% in size
# experimental_setup: CellTiter-Fluor fluorescence, 17 h; series mostly up to 92.4 µM
Inconclusive results are not listed. Calls of active or inactive are those of the source. Calls follow the shape of the dose curve; as a rule, active = well fitted cell-killing curve with a large enough effect in the repeat runs; inconclusive = weak or mixed curves, or effect the other way; inactive = flat fitted curve, though single readings scatter.
measured_parameter: activity change, negative = cytotoxicity

Past entries and their recorded results:
INSERT INTO measurements (compound, result) VALUES
  ('CC(C)CO', 'inactive'),
  ('CN1C[C@@H]2C[C@H]1CN2c1cc2c(cc1F)c(=O)c(C(=O)O)cn2C1CC1', '-1.05% [at 19 µM] (inactive)'),
  ('CCCCCCCCCOC(=O)CCCCC(=O)OCCCCCCC', 'inactive'),
  ('CC(=O)OC(C)=O', 'inactive'),
  ('O=C(O)CONC(=O)c1ccccc1', 'inactive');

q: Requested field: activity change, negative = cytotoxicity. Item: Cc1ccc2c(c1)C(=O)c1ccccc1C2=O
a: inactive

q: For COc1cc(/C=C/C(N)=O)cc(OC)c1OC then?
a: inactive

q: Same for CCCC(=O)OCCC(C)CCC=C(C)C (stereo not drawn)
a: inactive

====

# protocol_description: qHTS assay to test for compound auto fluorescence at 535 nm (green) in HepG2 cell free culture (AID 720686); further: on the % scale 0 is the no-effect control and ±100 the full control effect
# experimental_setup: Cell-free medium, green autofluorescence 485/535 nm; series mostly up to 91.3 µM
Active and inactive are the calls of the source. The call rests on the fitted dose curve; in most records, active means well fitted curve in the direction sought with a large enough effect in the repeat runs; inconclusive means weak or mixed curves; inactive means flat fitted curve, though single readings scatter.
measured_parameter: fluorescence, % of fluorescein control

Solved entries (count: 5):
INSERT INTO results (compound, result) VALUES
  ('COc1ccc(CCO)cc1', 'inactive'),
  ('CO[C@@]1(NC(=O)Cc2cccs2)C(=O)N2C(C(=O)O)=C(COC(N)=O)CS[C@@H]21', 'inactive'),
  ('CO/N=C(/C(=O)N[C@@H]1C(=O)N2C(C(=O)[O-])=C(C[n+]3ccn4ncccc43)CS[C@H]12)c1nsc(N)n1', 'inactive'),
  ('c1ccc(B(c2ccccc2)c2ccccc2)cc1', 'inactive'),
  ('O=Cc1cc2ccccc2o1', 'inactive');

q: What value of fluorescence, % of fluorescein control has been reported for the following compound? O=C1CCC(=O)N1Cl
a: inactive

q: Likewise for CC(C)OC(=O)CCC(=O)OC(C)C ?
a: inactive

q: Then this compound: C[C@@H](O)C(=O)O
a: inactive

====

# protocol_description: qHTS assay to identify small molecule agonists of the retinoic acid receptor (RAR) signaling pathway (AID 1159553); further: on the % scale 0 is the no-effect control and ±100 the full control effect
# experimental_setup: C3RL4 RARE luciferase reporter, agonist, 6 h; series mostly up to 73.3 µM
Inconclusive results are not listed. Calls of active or inactive are those of the source. Calls come from the whole dose curve; as a rule, active = well fitted activation curve with a large enough effect in the repeat runs; inconclusive = weak or mixed curves, or effect the other way; inactive = no such curve, though single readings can be large or run the other way.
measured_parameter: activation

Please review the following examples before continuing.
INSERT INTO measurements (compound, result) VALUES
  ('CC(=O)C1C(=O)C=C(C)OC1=O (stereo not drawn)', 'inactive'),
  ('CC(=O)C(C)O (stereo not drawn)', 'inactive'),
  ('C=C(C)c1cccc(C(C)(C)N=C=O)c1', 'inactive'),
  ('CCC[C@@H]1C[C@@H](C(=O)N[C@@H]([C@H]2O[C@H](SC)[C@H](O)[C@@H](O)[C@H]2O)[C@@H](C)O)N(C)C1', 'inactive'),
  ('CC(C)[C@H]1CC[C@H](C)C[C@@H]1O', 'inactive'),
  ('CCCCCC(C)O (stereo not drawn)', 'inactive');

q: Any idea what activation was measured for [O]=[Mo](=[O])=[O] ?
a: inactive

q: Quick one: CN(C)CC/C=C1/c2ccccc2COc2ccc(CC(=O)O)cc21
a: inactive

q: Try the compound CC(O)COC(C)(C)C (stereo not drawn)
a: inactive

q: Again, but for C=CCSSCCC
a: inactive

q: Request: CCN1CCCC1CN (stereo not drawn)
a: inactive

q: Same question, N#Cc1ccccc1O this time
a: inactive

q: Field entry: COCCc1ccccn1
a: inactive
